Just for reference, patent US4000297A is where these values come from.

Assay: Acute toxicity (DL50) in the mouse
Type: in vivo
Settings: in vivo, iv (Table 1), read-out: DL50 value
// returns NO unless LD50 is strictly below 500 mg/kg, in which case YES

INSERT INTO results (smiles, qualitativelabel) VALUES
  ('COc1ccc(C(=O)N[C@@H](Cc2c[nH]c3ccccc23)C(=O)O)cc1', 'NO'),
  ('O=C(O)c1ccc(C(=O)N[C@@H](Cc2c[nH]c3ccccc23)C(=O)O)cc1', 'NO'),
  ('CCN(CC)CCOC(=O)[C@H](Cc1c[nH]c2ccccc12)NC(=O)c1ccc(C)cc1', 'YES'),
  ('O=C(N[C@@H](Cc1c[nH]c2ccccc12)C(=O)O)c1ccccc1Cl', 'NO'),
  ('O=C(N[C@@H](Cc1c[nH]c2ccccc12)C(=O)O)c1ccc(Cl)cc1', 'YES'),
  ('N#Cc1ccc(C(=O)N[C@@H](Cc2c[nH]c3ccccc23)C(=O)O)cc1', 'NO'),
  ('O=C(N[C@@H](Cc1c[nH]c2ccccc12)C(=O)O)c1ccc(F)cc1', 'NO'),
  ('O=C(N[C@H](Cc1c[nH]c2ccccc12)C(=O)O)c1ccccc1Cl', 'NO'),
  ('O=C(N[C@@H](Cc1c[nH]c2ccccc12)C(=O)O)c1ccc(C(F)(F)F)cc1', 'YES'),
  ('O=C(N[C@@H](Cc1c[nH]c2ccccc12)C(=O)O)c1cccc(Cl)c1', 'NO'),
  ('Cc1ccc(C(=O)N[C@H](Cc2c[nH]c3ccccc23)C(=O)O)cc1', 'YES'),
  ('Nc1ccc(C(=O)N[C@@H](Cc2c[nH]c3ccccc23)C(=O)O)cc1', 'NO');

* * *

Here, each record is paired with measured ED50 data.
Tested on: gastric secretion
Test: Anti-secretive activity in the rat with lig. pylorus, iv
Assay type: in vivo
Conditions: rat with lig. pylorus, iv (Table 1); read-out: Activity A: anti-secretive activity ED50
measurementType: ED50 (mg/kg)

INSERT INTO measurements (compound, measurementtype, endpointunit, measuredresult) VALUES
  ('COC(=O)Cc1ccc(NC(=O)[C@H](Cc2c[nH]c3ccccc23)NC(=O)c2ccccc2)cc1 [Ex.40 (CR418)]', 'ED50', 'mg/kg', 290),
  ('O=C(N[C@@H](Cc1c[nH]c2ccccc12)C(=O)Nc1ccc(C(=O)Oc2ccccc2)cc1)OCc1ccccc1 [Ex.35 (CR411)]', 'ED50', 'mg/kg', 610),
  ('O=C(N[C@@H](Cc1c[nH]c2ccccc12)C(=O)O)c1ccccc1Cl [Ex.50 (CR617), N-o-chlorobenzoyl-L-tryptophane]', 'ED50', 'mg/kg', 299);

* * *

Tested on: gastric secretion
Assay: Anti-secretive activity in the rat with lig. pylorus, iv
Type: in vivo
Conditions: iv; DL50 iv / ED50 iv (Table 2)
measurementType: Therapeutic coefficient iv. 2/3

INSERT INTO assay_data (smiles, measuredresult) VALUES
  ('O=C(N[C@@H](Cc1c[nH]c2ccccc12)C(=O)O)OCc1ccc(Br)cc1', 1.9),
  ('Cc1ccc(C(=O)N[C@@H](Cc2c[nH]c3ccccc23)C(=O)O)cc1', 3.8),
  ('O=C(N[C@@H](Cc1c[nH]c2ccccc12)C(=O)O)c1ccc(Cl)cc1', 1.9),
  ('COc1ccc(COC(=O)N[C@@H](Cc2c[nH]c3ccccc23)C(=O)O)cc1', 3.2),
  ('O=C(N[C@@H](Cc1c[nH]c2ccccc12)C(=O)O)OCc1ccc(Cl)cc1', 1.8),
  ('Cc1ccc(COC(=O)N[C@@H](Cc2c[nH]c3ccccc23)C(=O)O)cc1', 1.9);

* * *

Test system: gastric secretion
Assay: Anti-secretive activity in the rat by gastric stimulus, oral
Type: in vivo
Conditions: oral (Table 1), read-out: Activity B: anti-secretive activity ED50
Structures can show the parent of a compound that is named as a salt.
measurementType: ED50 (mg/kg)

INSERT INTO results (molecule, assayedsystem, measurementtype, measuredresult) VALUES
  ('O=C(O)Cc1ccc(NC(=O)[C@H](Cc2c[nH]c3ccccc23)NC(=O)OCc2ccccc2)cc1', 'gastric secretion', 'ED50', 210),
  ('COC(=O)Cc1ccc(NC(=O)[C@H](Cc2c[nH]c3ccccc23)NC(=O)OCc2ccccc2)cc1', 'gastric secretion', 'ED50', 300),
  ('CN(C)CCOC(=O)[C@H](Cc1c[nH]c2ccccc12)NC(=O)OCc1ccc(Cl)cc1 [Ex.48 (CR583), hydrochloride]', 'gastric secretion', 'ED50', 121);

* * *

System: gastric secretion
Assay: Anti-secretive activity in the rat by gastric stimulus, oral
Type: in vivo
Conditions: oral (Table 1), read-out: Activity B: anti-secretive activity ED50
measurementType: ED50 (mg/kg)

INSERT INTO measurements (compound, measurementtype, endpointunit, measuredresult) VALUES
  ('Nc1ccc(C(=O)N[C@@H](Cc2c[nH]c3ccccc23)C(=O)O)cc1', 'ED50', 'mg/kg', 205),
  ('O=C(N[C@@H](Cc1c[nH]c2ccccc12)C(=O)O)OCc1cccc(Cl)c1Cl', 'ED50', 'mg/kg', 60),
  ('O=C(N[C@@H](Cc1c[nH]c2ccccc12)C(=O)Nc1ccc(C(=O)O)cc1)OCc1ccccc1', 'ED50', 'mg/kg', 180),
  ('O=C(N[C@@H](Cc1c[nH]c2ccccc12)C(=O)O)c1ccccc1Cl', 'ED50', 'mg/kg', 255),
  ('O=C(NC(Cc1c[nH]c2ccccc12)C(=O)O)c1ccccc1Cl (racemic)', 'ED50', 'mg/kg', 320),
  ('O=C(N[C@@H](Cc1c[nH]c2ccccc12)C(=O)O)OCc1ccc(C(F)(F)F)cc1', 'ED50', 'mg/kg', 92);

* * *

Test system: gastric secretion
Assay: Anti-secretive activity in the rat with lig. pylorus, iv
Assay type: in vivo
Conditions: rat with lig. pylorus, iv (Table 1); read-out: Activity A: anti-secretive activity ED50
measurementType: ED50

INSERT INTO measurements (compound, measuredresult) VALUES
  ('COC(=O)Cc1ccc(NC(=O)[C@H](Cc2c[nH]c3ccccc23)NC(=O)OCc2ccccc2)cc1', '300 mg/kg'),
  ('O=C(O)c1ccc(NC(=O)[C@H](Cc2c[nH]c3ccccc23)NC(=O)c2ccccc2)cc1', '284 mg/kg'),
  ('O=C(O)Cc1ccc(NC(=O)[C@H](Cc2c[nH]c3ccccc23)NC(=O)OCc2ccccc2)cc1', '370 mg/kg'),
  ('O=C(N[C@@H](Cc1c[nH]c2ccccc12)C(=O)O)OCc1ccccc1Cl', '118 mg/kg'),
  ('O=C(NC(Cc1c[nH]c2ccccc12)C(=O)O)c1ccccc1Cl (racemic)', '345 mg/kg'),
  ('CCN(CC)CCOC(=O)[C@H](Cc1c[nH]c2ccccc12)NC(=O)c1ccc(C)cc1', '160 mg/kg');
